Source of measurements: ChEMBL document CHEMBL1137595

Test: Oral bioavailability after oral dosing at 5 mg kg-1
Format: ADME, organism-based
Conditions: mouse, in vivo
reported endpoint: bioavailability (%)
Unit % implied. Number only.

Data request: If you can, please state the reported bioavailability value of "O=C(NO)c1ccc(-c2ccn(CCNCc3ccc4c(c3)OCO4)n2)s1" .
Data returned: 10
